# Test system: MS2 coat protein
# TEST DESCRIPTION: apparent KD of MS2 coat protein; designed switch direction (-1 OFF switch, 1 ON switch): -1; higher = weaker reporter binding
# CONDITION DETAILS: input ligand: FMN 200 uM
Recorded measurements of apparent KD of MS2 coat protein, one per entry
MEASUREMENT LABEL: apparent KD of MS2 coat protein (nM)

[
  {
    "CONSTRUCT SEQUENCE": "AUUGUUUAUGUAGGAUAUGCCUGGCGUGCCUUCGCAGAAGGACAUGAGGAUCACCCAUGUAUUGCGGUCUGCGUUCAGAUCGCU [salish99_ExNG1_r4_025] (Eterna round: R96, puzzle: Exclusion NG 1)",
    "MEASURED TARGET": "MS2 coat protein",
    "RESULT UNITS": "nM",
    "VALUE": 75
  },
  {
    "CONSTRUCT SEQUENCE": "AAACAGGGAGGAUAUACAUGAGGAUCACCCAUGUUCGAGCGUCCUUGAGCUACCUCAGGUAGAAGGCCCAAAAG [Qubeon] (Eterna round: R97, puzzle: Exclusion 3)",
    "MEASURED TARGET": "MS2 coat protein",
    "RESULT UNITS": "nM",
    "VALUE": 151
  },
  {
    "CONSTRUCT SEQUENCE": "AAUAAUCGGGCCUUCCUAUUACAUGAGGAUCACCCAUGUCUCGAGGAUAUACCGACGCACGGUCCGUAGAAGGCGAGACCACAC [Esusbied] (Eterna round: R96, puzzle: Exclusion NG 3)",
    "MEASURED TARGET": "MS2 coat protein",
    "RESULT UNITS": "nM",
    "VALUE": 141
  },
  {
    "CONSTRUCT SEQUENCE": "AAUACGUGAGGAUAUAGAUGAAGGAACUUGAGGAUCACCCAAGUGGCGUCUAGUUCCUGGCUAGAAGGCACAAAUA [Biedbe] (Eterna round: R97, puzzle: Exclusion 5)",
    "MEASURED TARGET": "MS2 coat protein",
    "RESULT UNITS": "nM",
    "VALUE": 263
  },
  {
    "CONSTRUCT SEQUENCE": "UCUUAUUGAGGAUAUACAUUAAAAUACAUGAGGAUCACCCAUGUUCUUCAAUGUAUAUAUGUAGAAGGCAGAAUAU [Mat - Exclusion 5 - JL Mod - D27] (Eterna round: R97, puzzle: Exclusion 5)",
    "MEASURED TARGET": "MS2 coat protein",
    "RESULT UNITS": "nM",
    "VALUE": 61.2
  },
  {
    "CONSTRUCT SEQUENCE": "CUAUGUUAGCAGGAUAUGCCAUUAUUCUUUUUCGCAGAAGGGCUUACAUGAGGAUCACCCAUGUUACAUUUCUU [JR_E6_Sub086] (Eterna round: R96, puzzle: Exclusion 6)",
    "MEASURED TARGET": "MS2 coat protein",
    "RESULT UNITS": "nM",
    "VALUE": 42.6
  },
  {
    "CONSTRUCT SEQUENCE": "UCAUGGUUAGAGGAUAUAUAAUUAGUCAGAACAAUAGAAGGCUAGACAUGAGGAUCACCCAUGUAUGUUGAGGU [JR_Ex6_Sub065] (Eterna round: R97, puzzle: Exclusion 6)",
    "MEASURED TARGET": "MS2 coat protein",
    "RESULT UNITS": "nM",
    "VALUE": 42.6
  },
  {
    "CONSTRUCT SEQUENCE": "CAGUACUGAGGAUAUACAUGAGGAUCACCCAUGUGUUUUCUAUUAGGAAACUAGUUAUGUAGAAGGCAGUACUG [Omei Ex3 Mod of Eli 4.27 v11] (Eterna round: R97, puzzle: Exclusion 3)",
    "MEASURED TARGET": "MS2 coat protein",
    "RESULT UNITS": "nM",
    "VALUE": 304
  },
  {
    "CONSTRUCT SEQUENCE": "AUCCUUAACAAGGAUAUCGGGCGGGAAAUUGUUUGAGAAGGUGUAACAUGAGGAUCACCCAUGUAAAAUAUGAA [-14.9, -13.5 kcal, A 36%] (Eterna round: R97, puzzle: Exclusion 6)",
    "MEASURED TARGET": "MS2 coat protein",
    "RESULT UNITS": "nM",
    "VALUE": 21.7
  },
  {
    "CONSTRUCT SEQUENCE": "CUGAGUGGAGGAUAUACAUGAGGAUCACCCAUGUAAAGUAGCUUGCGUACAGGCAGAUGUAGAAGGUCAUUCGG [Mod of JL 12 - Jieux - Exclusion 3] (Eterna round: R97, puzzle: Exclusion 3)",
    "MEASURED TARGET": "MS2 coat protein",
    "RESULT UNITS": "nM",
    "VALUE": 28.2
  }
]

====

# Test system: K4 kissing-loop RNA reporter;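 note: bound reporter read as fluorescence of individual clusters on recovered sequencing chips by microscopy, with normalized cluster intensities fitted with a binding model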
# TEST DESCRIPTION: apparent KD of K4 kissing-loop reporter; higher = weaker reporter binding
# CONDITION DETAILS: Eterna round: R107; input ligand: tryptophan 2.4 mM
Note to self: class = bucket of apparent KD of K4 kissing-loop reporter, per bucket 1: < 80 nM; bucket 2: ≥ 80 nM and < 300 nM; bucket 3: ≥ 300 nM

[
  {
    "CONSTRUCT SEQUENCE": "UUAUAAUUCAGUGAUGUUGAAAAUAUAACAGAGGAUAUGCGUUUAAGCAGAAGGCUGAAAUACUAUACUUUAAUCUAUUAAAUUU [JR_SSFMNA_Sub019]",
    "CAT": "bucket 2"
  },
  {
    "CONSTRUCT SEQUENCE": "AGGAUGUAGUGAUGUUAUAUAAGAAGUAAACGAGGACCGGUACGGCCGCCACUCGAAGCGGCUACUAGCGCGUUGCGAGGUGCGC [ExTryptoA.Cc]",
    "CAT": "bucket 2"
  },
  {
    "CONSTRUCT SEQUENCE": "AAUAAGGAGUGAUGUUCCAAGUGAUGUUAACGAGGACCGGUACGGCCGCCACUCGAUACGGCCGGAAAGUAAGAUAAACUACAAU [Same State - Tryptophan A (Freestyle 3)]",
    "CAT": "bucket 1"
  },
  {
    "CONSTRUCT SEQUENCE": "GCCGUACGCAUGGAUACCAGCCGACCUGAUGUUAAGCUGGUGCCGUAGUGAUGUUACGAAGGCCCUUGGCAGCCAUGCGUACGGC",
    "CAT": "bucket 2"
  },
  {
    "CONSTRUCT SEQUENCE": "AAACGUUGUUGCGAUACCAGCUGAUCGGAAACGAUCAUGCUGGAGUGAUGUUCCAGGAAAAGCCCUUGGCAGCGCAACGACGAAA [MAT - Same State Theophlline B - Mod of Eli - D30]",
    "CAT": "bucket 2"
  },
  {
    "CONSTRUCT SEQUENCE": "GUUCUGAUGGAAACAUCGGAACAUACUGAUACCAGUAUCGAUAGAUACCCUUGGCAGCAGAAUCAGUAAUAACGAGUGAUGUUCG [Ex Theophylline A K4 2]",
    "CAT": "bucket 2"
  },
  {
    "CONSTRUCT SEQUENCE": "GGCAUGGUGGCAGGAUAUCCUAAUAGAGUGAUGUUCUAGCCCUCGUAGGCGAAAGCCUACGAGGGCGGAGAAGGGCCACCAUGCC",
    "CAT": "bucket 3"
  },
  {
    "CONSTRUCT SEQUENCE": "AUUCGUUUAUGUGAUACCAGACUUUGCAGUGAUGUUGCUUUAAUUAAAGAUGUUUAGUUUGUCCCUUGGCAGCACUAUUUAUUUA [JR_SSTheophyB_Sub001]",
    "CAT": "bucket 1"
  },
  {
    "CONSTRUCT SEQUENCE": "UGACAUUGCUCAGAUACCAGACUUGAGGAUCACCCAAGUGCCAAACGUACAAUAAUAAAAGUCCCUUGGCAGCUGAGCAAUGUCU [TheoBX 14]",
    "CAT": "bucket 1"
  },
  {
    "CONSTRUCT SEQUENCE": "AGUAGUUGGACGGCCGCCACUGGAACAGCUUUGCCAAAGGCAGAGCACUAGAGUGAUGUUCUAGCUAGGACCGGGUCCAACUACA [whbob_SS_Tryp_B_t16]",
    "CAT": "bucket 3"
  },
  {
    "CONSTRUCT SEQUENCE": "AUUAAUAUCACGGCCGCCACUGAAUAUUGUUUUUAUAUUUAGAAAUCUUGCCAGUGAUGUUGGAUCAGGACCGGGUGAGUUUAUA [JR_SSTryptoB_Sub006]",
    "CAT": "bucket 3"
  },
  {
    "CONSTRUCT SEQUENCE": "AAAUAUUCGAGUGAUGUUCGAUAAAUUUCAGAGGAUAUGCUUAAAAGCAGAAGGCUGUAUUUCUAUUUGUUAUUAAAUUUUAUAA [JR_ExcFMNA_Sub002]",
    "CAT": "bucket 1"
  }
]
